Hello, the source for this data is paper PMC11263391, in case you need it.

# tested on: T1, ASB7-Elongin B-Elongin C ternary complex (wild-type ASB7, residues 11-318) (human, UniProt Q9H672 11-318; Q15370 1-104; Q15369 17-112)
# T1 construct: human ASB7, residues 11-318; human Elongin B, residues 1-104; also called ASB7-Elongin B/C; WT; source: E. coli BL21 (DE3), co-expressed, purified (Ni-NTA, Superdex 200); not shown: SUMO, N-terminal, cleaved; copies: + +
# T1 sequence (Q9H672 11-318, chain 1 of 3): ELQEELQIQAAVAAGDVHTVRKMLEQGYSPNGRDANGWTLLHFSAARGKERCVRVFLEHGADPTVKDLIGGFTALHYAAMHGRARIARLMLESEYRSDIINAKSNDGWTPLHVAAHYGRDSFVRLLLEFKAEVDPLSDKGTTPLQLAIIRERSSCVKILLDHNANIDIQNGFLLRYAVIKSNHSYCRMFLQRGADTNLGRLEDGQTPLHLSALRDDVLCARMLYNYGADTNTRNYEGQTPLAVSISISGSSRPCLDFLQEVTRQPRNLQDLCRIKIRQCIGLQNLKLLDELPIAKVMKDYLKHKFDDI
# T1 sequence (Q15370 1-104, chain 2 of 3): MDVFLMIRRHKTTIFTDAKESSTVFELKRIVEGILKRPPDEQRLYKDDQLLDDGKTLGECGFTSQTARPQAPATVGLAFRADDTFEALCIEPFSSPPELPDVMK
# T1 sequence (Q15369 17-112, chain 3 of 3): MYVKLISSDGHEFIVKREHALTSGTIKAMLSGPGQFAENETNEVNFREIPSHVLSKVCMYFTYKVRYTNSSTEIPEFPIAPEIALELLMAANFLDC
# protocol text: ITC; peptide in the syringe titrated into ASB7-Elongin B/C in the cell; MicroCal PEAQ-ITC, 16 °C, 20 mM Tris-HCl pH 7.5, 150 mM NaCl; 39–156 μM protein, 0.8–4 mM peptide; repeated three times, mean ± SD
# assay conditions: both partners purified
Please respond with reported Kd for every item in the list.
Response body: numeric value in nM, unit text excluded.

IN: Provide measured Kd value, entry: RQELESLMKEQDLLETKLRSRER (numbers count on: the degron, E1 = third letter of the 23-residue peptide; source: synthetic peptide (Shanghai Apeptide Co., Ltd.)) [LZTS1 degron peptide Y19R]
OUT: 700

IN: Provide measured Kd value, entry: RQELESLMKEQDLLETKLRSY (LZTS1 degron shortened by two residues at the C-terminus; source: synthetic peptide (Shanghai Apeptide Co., Ltd.)) [LZTS1 degron peptide, 21 residues (RQELESLMKEQDLLETKLRSY)]
OUT: 900

IN: Provide measured Kd value, entry: EIGELKAVMEGIKMEHQLELGN (stretch of CLIP2, a reported ASB7 substrate; source: synthetic peptide (Shanghai Apeptide Co., Ltd.)) [CLIP2 degron peptide]
OUT: 700
